# MIC measurements, system: E. coli-BL21 (pET28c-AlbD)
All answers are understood in µg/mL, so give the number only.

A selection of reference data follows.
* COc1c(NC(=O)c2ccc(NC(=O)c3ccc(NC(=O)[C@H](CC#N)NC(=O)c4ccc(NC(=O)/C(C)=C/c5ccc(O)cc5)cc4)cc3)c(OC)c2O)ccc(C(=O)O)c1O [Albicidin, reference compound] | 0.25
* COc1c(NC(=O)c2ccc(NC(=O)[C@H](CC#N)NC(=O)c3ccc(NC(=O)/C(C)=C/c4ccc(O)cc4)cc3)c(OC)c2O)ccc(C(=O)Nc2ccc(C(=O)O)cc2)c1O [PABA34] | 0.03
* COc1c(NC(=O)/C(C)=C/c2ccc(O)cc2)ccc(C(=O)N[C@@H](CC#N)C(=O)Nc2ccc(C(=O)Nc3ccc(C(=O)Nc4ccc(C(=O)O)cc4)c(O)c3OC)c(O)c2OC)c1O [PABA95-2] | 0.5

// below: MIC requested for another molecule
Ask: Recall and state the measured MIC for COc1c(NC(=O)/C(C)=C/c2ccc(O)cc2)ccc(C(=O)N[C@@H](CC#N)C(=O)Nc2ccc(C(=O)Nc3ccc(C(=O)Nc4ccc(C(=O)O)cc4)c(O)c3OC)cc2)c1O [PABA95] .
Result: 2

* * *

Entries annotated with measured MIC
# Test system: P. aeruginosa
# assay-protocol: Syn-BNP MIC against ESKAPE pathogens: P. aeruginosa
# Type: cell-based, Pseudomonas aeruginosa
# test-context: Gram-negative
Value expressed in µg/mL; do not type the unit.

Answered examples (2):
* COc1c(NC(=O)c2ccc(NC(=O)c3ccc(NC(=O)[C@H](CC#N)NC(=O)c4ccc(NC(=O)/C(C)=C/c5ccc(O)cc5)cc4)cc3)c(OC)c2O)ccc(C(=O)O)c1O [Albicidin, reference compound] | 1
* COc1c(NC(=O)/C(C)=C/c2ccc(O)cc2)ccc(C(=O)N[C@@H](CC#N)C(=O)Nc2ccc(C(=O)Nc3ccc(C(=O)Nc4ccc(C(=O)O)cc4)c(O)c3OC)cc2)c1O | 8

We now examine a further molecule.
Ask: Kindly indicate its recorded MIC. Item: COc1c(NC(=O)c2ccc(NC(=O)[C@H](CC#N)NC(=O)c3ccc(NC(=O)/C(C)=C/c4ccc(O)cc4)cc3)c(OC)c2O)ccc(C(=O)Nc2ccc(C(=O)O)cc2)c1O
Result: 2

* * *

# Tested on: S. aureus SH1000
# assay-protocol: Syn-BNP MIC against ESKAPE pathogens: S. aureus
# Type: cell-based, Staphylococcus aureus
# test-context: S. aureus SH1000, Gram-positive
The entries below are paired with their reported MIC.

Examples from the recorded data:
* COc1c(NC(=O)c2ccc(NC(=O)[C@H](CC#N)NC(=O)c3ccc(NC(=O)/C(C)=C/c4ccc(O)cc4)cc3)c(OC)c2O)ccc(C(=O)Nc2ccc(C(=O)O)cc2)c1O [PABA34] | >8 µg/mL
* CO[C@@H](C(N)=O)[C@H](NC(=O)c1ccc(NC(=O)[C@@H](N)Cc2ccc(O)cc2)cc1)C(=O)Nc1ccc(C(=O)Nc2ccc(C(=O)Nc3ccc(C(=O)O)cc3)c(O)c2OC(C)C)cc1 [PABA57] | >8 µg/mL
* CO[C@@H](C(N)=O)[C@H](NC(=O)c1ccc(NC(=O)[C@@H](N)Cc2ccc(O)cc2)cc1)C(=O)Nc1ccc(C(=O)Nc2ccc(C(=O)Nc3ccc(C(=O)O)c(O)c3OC(C)C)c(O)c2OC(C)C)cc1 [PABA70] | 1 µg/mL
* CO[C@@H](C(N)=O)[C@H](NC(=O)c1ccc(NC(=O)[C@@H](N)Cc2ccccc2)cc1)C(=O)Nc1ccc(C(=O)Nc2ccc(C(=O)Nc3ccc(C(=O)O)c(O)c3OC(C)C)c(O)c2OC(C)C)cc1 [PABA48] | 0.25 µg/mL
* COc1c(NC(=O)c2ccc(NC(=O)c3ccc(NC(=O)[C@H](CC#N)NC(=O)c4ccc(NC(=O)/C(C)=C/c5ccc(O)cc5)cc4)cc3)c(OC)c2O)ccc(C(=O)O)c1O [Albicidin, reference compound] | 0.5 µg/mL

Ask: // output MIC; input COc1c(NC(=O)/C(C)=C/c2ccc(O)cc2)ccc(C(=O)N[C@@H](CC#N)C(=O)Nc2ccc(C(=O)Nc3ccc(C(=O)Nc4ccc(C(=O)O)cc4)c(O)c3OC)cc2)c1O [PABA95] ; system S. aureus SH1000
Result: 4 µg/mL
